Every entry's value here was drawn from ChEMBL document CHEMBL1909046.

Molecular target: Alpha-2A adrenergic receptor (Homo sapiens, UniProt P08913); also: in other assays of this panel Not Active means under 50% inhibition at 10 µM
Sequence (P08913 whole entry): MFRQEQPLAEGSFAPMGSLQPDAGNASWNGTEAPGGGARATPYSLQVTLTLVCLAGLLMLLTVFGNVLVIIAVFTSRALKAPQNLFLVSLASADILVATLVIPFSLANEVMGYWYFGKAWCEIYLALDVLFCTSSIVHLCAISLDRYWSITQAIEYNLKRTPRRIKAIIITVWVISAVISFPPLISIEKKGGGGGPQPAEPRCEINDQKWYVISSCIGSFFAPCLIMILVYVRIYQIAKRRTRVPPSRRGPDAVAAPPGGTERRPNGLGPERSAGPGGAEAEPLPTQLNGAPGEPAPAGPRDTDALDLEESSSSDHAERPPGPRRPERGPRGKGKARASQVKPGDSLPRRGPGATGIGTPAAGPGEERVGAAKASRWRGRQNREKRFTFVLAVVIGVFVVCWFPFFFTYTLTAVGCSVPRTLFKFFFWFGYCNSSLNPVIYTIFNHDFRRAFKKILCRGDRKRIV
Type: cell membranes, Sf9, Membrane
Conditions: sf9
assay.metric: IC50

Worked set:
compound	IC50
Cc1cn[nH]c1 [FOMEPIZOLE]	Not Active
COc1ccc(Cc2nccc3cc(OC)c(OC)cc23)cc1OC [PAPAVERINE]	Not Active
N[C@@H](Cc1ccc(F)cc1)C(=O)O	Not Active
CO[C@@]1(NC(=O)CSCC#N)C(=O)N2C(C(=O)O)=C(CSc3nnnn3C)CS[C@@H]21 [CEFMETAZOLE]	Not Active

Next up:
### Prompt Recorded IC50 for Clc1cc2c(cc1Cl)Oc1cc(Cl)c(Cl)cc1O2 [2,3,7,8-TETRACHLORODIBENZO-P-DIOXIN] , please?
### Response Not Active

----------
target: Alpha-1A adrenergic receptor (Rattus norvegicus, UniProt P43140); test: DRUGMATRIX: Alpha-1A adrenergic receptor radioligand binding (ligand: prazosin); format: cell membranes, Wistar, Submaxillary gland, Membrane; conditions: Not Active = under 50% inhibition at 10 µM
Sequence (P43140 whole entry): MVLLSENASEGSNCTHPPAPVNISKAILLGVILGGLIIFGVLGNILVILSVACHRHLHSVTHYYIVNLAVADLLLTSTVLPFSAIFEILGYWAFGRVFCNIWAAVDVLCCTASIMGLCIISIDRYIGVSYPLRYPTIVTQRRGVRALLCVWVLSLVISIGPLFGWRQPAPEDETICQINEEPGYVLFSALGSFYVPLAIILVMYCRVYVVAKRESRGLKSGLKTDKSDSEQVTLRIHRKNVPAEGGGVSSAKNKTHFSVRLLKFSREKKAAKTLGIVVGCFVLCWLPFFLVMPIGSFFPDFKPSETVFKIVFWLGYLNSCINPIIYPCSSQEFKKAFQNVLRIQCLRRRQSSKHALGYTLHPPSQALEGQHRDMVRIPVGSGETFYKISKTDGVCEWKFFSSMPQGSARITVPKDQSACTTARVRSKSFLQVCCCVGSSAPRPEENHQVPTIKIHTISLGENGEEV
assay.metric: Ki

substance	Ki
INSULIN HUMAN	Not Active
POLYVINYL ALCOHOL	Not Active
STANNOUS FLUORIDE	Not Active
COBALT(II) ACETYLACETONATE	Not Active

Below: the item to evaluate.
### Prompt Recorded Ki for "THIMEROSAL" , please?
### Response Not Active

----------
target: Alpha-2A adrenergic receptor (Homo sapiens, UniProt P08913); type: cell membranes, Sf9, Membrane; conditions: sf9; read-out: IC50; also: in other assays of this panel Not Active means under 50% inhibition at 10 µM
assay.metric: pIC50
Hey, just a heads up that pIC50 is the negative log base 10 of the concentration in molar.

### Prompt Request the reported pIC50 associated with "THIMEROSAL"
### Response 6.27

----------
assay: DRUGMATRIX: Purinergic P2X radioligand binding (ligand: [3H] alpha, beta-Methylene-ATP); format: cell membranes, Oryctolagus cuniculus, New Zealand albino, Urinary bladder, Membrane; details: Not Active = under 50% inhibition at 10 µM
assay.metric: Ki

molecule	value
N=C(N)N/N=C/c1c(Cl)cccc1Cl	Not Active
CC[C@H](C)C(=O)O[C@H]1C[C@@H](C)C=C2C=C[C@H](C)[C@H](CC[C@@H]3C[C@@H](O)CC(=O)O3)[C@H]21	Not Active
CC(C)(C)NC[C@H](O)COc1nsnc1N1CCOCC1	Not Active
C/C=C\c1ccc(O)c(OC)c1	Not Active
COc1cc(CNC(=O)CCCC/C=C/C(C)C)ccc1O	Not Active
CC(C)(CO)C(O)C(=O)NCCCO (stereo not drawn)	Not Active
O=P1(N(CCCl)CCCl)NCCCO1 (stereo not drawn) [CYCLOPHOSPHAMIDE ANHYDROUS]	Not Active
C[C@]12CCC(=O)C=C1CC[C@@H]1[C@@H]2[C@@H](O)C[C@@]2(C)[C@H]1CC[C@]2(O)C(=O)CO [HYDROCORTISONE]	Not Active
Nn1nnc2ccccc21	Not Active
CC[C@H](C)C(=O)O[C@H]1C[C@H](O)C=C2C=C[C@H](C)[C@H](CC[C@@H](O)C[C@@H](O)CC(=O)O)[C@H]21	Not Active

### Prompt Ki for "CO[C@H]1C[C@@H]2CC[C@@H](C)[C@@](O)(O2)C(=O)C(=O)N2CCCC[C@H]2C(=O)O[C@H]([C@H](C)C[C@@H]2CC[C@@H](O)[C@H](OC)C2)CC(=O)[C@H](C)/C=C(\C)[C@@H](O)[C@@H](OC)C(=O)[C@H](C)C[C@H](C)/C=C/C=C/C=C/1C" ?
### Response Not Active

### Prompt State the recorded Ki for this entry: "CC(C)C[C@H]1C(=O)N2CCC[C@H]2[C@]2(O)O[C@](NC(=O)[C@@H]3C=C4c5cccc6[nH]c(Br)c(c56)C[C@H]4N(C)C3)(C(C)C)C(=O)N12"
### Response Not Active

### Prompt # input molecule: CC(=O)O[C@]1(C(C)=O)CC[C@H]2[C@@H]3C=C(Cl)C4=CC(=O)[C@@H]5C[C@@H]5[C@]4(C)[C@H]3CC[C@@]21C [CYPROTERONE ACETATE] ; wanted: its Ki
### Response Not Active

### Prompt // query Ki value for entry "CCC[C@@H]1C[C@@H](C(=O)N[C@@H]([C@H]2O[C@H](SC)[C@H](O)[C@@H](O)[C@H]2O)[C@H](C)Cl)N(C)C1"
### Response Not Active

### Prompt Recorded Ki for Cc1cn[nH]c1 [FOMEPIZOLE] , please?
### Response Not Active

### Prompt For "CCc1oc2ccccc2c1C(=O)c1cc(Br)c(O)c(Br)c1" , what is its reported Ki?
### Response Not Active

### Prompt Using the record for "OCCN1CCN(CCCN2c3ccccc3Sc3ccc(Cl)cc32)CC1" , report its Ki.
### Response Not Active

### Prompt # input molecule: "CC[C@H]1OC(=O)[C@H](C)[C@@H](O[C@H]2C[C@@](C)(OC)[C@@H](O)[C@H](C)O2)[C@H](C)[C@@H](O[C@@H]2O[C@H](C)C[C@H](N(C)C)[C@H]2O)[C@](C)(OC)C[C@@H](C)C(=O)[C@H](C)[C@@H](O)[C@]1(C)O" ; wanted: its Ki
### Response Not Active

### Prompt Param item = "C[C@@H](O)[C@H]1C(=O)N2C(C(=O)O)=C(S[C@@H]3CN[C@H](C(=O)N(C)C)C3)[C@H](C)[C@H]12" ; retrieve measured Ki.
### Response Not Active

### Prompt Could you tell me which Ki is on file for CCOC(=O)C1=C(C)NC(C)=C(C(=O)OC)C1c1cccc(Cl)c1Cl (stereo not drawn) ?
### Response Not Active

### Prompt Suppose we examine the molecule "COc1cc(N)nc2[nH]c(-c3ccc(F)cc3)c(-c3ccncc3)c12" ; what Ki value has been reported?
### Response Not Active

### Prompt Which Ki is reported for this molecule? "Nc1ccc(S(=O)(=O)Nc2nccs2)cc1"
### Response Not Active

----------
Target: C-C chemokine receptor type 4 (Homo sapiens, UniProt P51679); also: in other assays of this panel Not Active means under 50% inhibition at 10 µM
Sequence (P51679 whole entry): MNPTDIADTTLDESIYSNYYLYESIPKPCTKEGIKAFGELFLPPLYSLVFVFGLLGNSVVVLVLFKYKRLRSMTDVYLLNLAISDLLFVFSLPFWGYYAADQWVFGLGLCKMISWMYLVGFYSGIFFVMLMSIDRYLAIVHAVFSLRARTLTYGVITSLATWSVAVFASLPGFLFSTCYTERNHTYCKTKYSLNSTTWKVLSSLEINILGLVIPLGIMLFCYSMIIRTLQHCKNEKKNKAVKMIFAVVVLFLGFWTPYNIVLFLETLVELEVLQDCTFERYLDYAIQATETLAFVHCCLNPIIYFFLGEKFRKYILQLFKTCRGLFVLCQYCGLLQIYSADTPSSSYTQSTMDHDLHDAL
Assay type: cell membranes, Membrane
Conditions: chem-1
assay.metric: IC50

Before answering, review these 10 worked examples.
compound	IC50
CN(CCOc1ccc(CC2SC(=O)NC2=O)cc1)c1ccccn1 (configuration not stated)	Not Active
C[C@H](C(=O)O)c1cccc(C(=O)c2ccccc2)c1	Not Active
CC[C@H](C)C(=O)O[C@H]1C[C@H](O)C=C2C=C[C@H](C)[C@H](CC[C@@H](O)C[C@@H](O)CC(=O)O)[C@H]21	Not Active
CC(C(=O)O)c1ccc(-c2ccccc2)c(F)c1 (configuration not stated)	Not Active
Oc1ccccc1O	Not Active
CCOC(=O)[C@H](CCc1ccccc1)N[C@@H](C)C(=O)N1CCC[C@H]1C(=O)O	Not Active
COc1ccccc1OCC(O)CO (configuration not stated)	Not Active
COc1ccc(/C=C/C(=O)Nc2ccccc2C(=O)O)cc1OC	Not Active
CNS(=O)(=O)Cc1ccc2[nH]cc(CCN(C)C)c2c1	Not Active
CC1=C(CC(=O)O)c2cc(F)ccc2/C1=C\c1ccc(S(C)(=O)=O)cc1	Not Active

### Prompt If you can, please state the reported IC50 value of CC[C@@H](CO)NC(=O)[C@@H]1C=C2c3cccc4c3c(cn4C)C[C@H]2N(C)C1 [METHYSERGIDE] .
### Response Not Active

### Prompt Recorded IC50 for CCOC(=O)C1=C(C)NC(C)=C(C(=O)OC)C1c1cccc(Cl)c1Cl (configuration not stated) , please?
### Response Not Active

### Prompt Reported IC50 for "CS(=O)(=O)OCCCCOS(C)(=O)=O" : what is it?
### Response Not Active

### Prompt Request the reported IC50 associated with "CC(C)(C)NC[C@H](O)COc1nsnc1N1CCOCC1"
### Response Not Active

### Prompt Name the recorded IC50 for "CCn1cc(C(=O)O)c(=O)c2cc(F)c(N3CCNCC3)nc21" .
### Response Not Active

### Prompt Request the reported IC50 associated with "CC[C@H]1OC(=O)[C@H](C)[C@@H](O[C@H]2C[C@@](C)(OC)[C@@H](O)[C@H](C)O2)[C@H](C)[C@@H](O[C@@H]2O[C@H](C)C[C@H](N(C)C)[C@H]2O)[C@](C)(O)C[C@@H](C)CN(C)[C@H](C)[C@@H](O)[C@]1(C)O"
### Response Not Active

### Prompt Which IC50 is listed for Cc1c(F)c(N2CCNC(C)C2)cc2c1c(=O)c(C(=O)O)cn2C1CC1 (configuration not stated) ?
### Response Not Active

### Prompt What does the data say about its IC50? Entry: "O=c1cc(-c2ccccc2)oc2ccc3ccccc3c12"
### Response Not Active
